System: biotinyl-Leu-oxazolone
TEST_DETAILS: self-aminoacylation, catalytic enhancement (BLO) (fold over background); higher = more active; k-Seq, kA / k0A0; sequences stand for … in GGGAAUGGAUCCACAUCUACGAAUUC…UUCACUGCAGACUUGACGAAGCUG
Variants at the floor of the assay were thinned out.
Each entry gets NOT MET if its self-aminoacylation stays under 2, and MET if its self-aminoacylation is 2 or above.

Use these answered entries as a reference point.
INSERT INTO measurements (input_sequence, target_or_test_system, class_name) VALUES
  ('AUUCACCCUGGUCAUCGGGUG [Fam2.2 aminoacylation ribozyme variant]', 'biotinyl-Leu-oxazolone', 'MET'),
  ('AUUCACCUACGGCAUCGGGUG [Fam2.2 aminoacylation ribozyme variant]', 'biotinyl-Leu-oxazolone', 'MET'),
  ('AUUACCCUGGUCAUCAAGUUA [Fam2.1 aminoacylation ribozyme variant]', 'biotinyl-Leu-oxazolone', 'NOT MET');

Attention now turns to another entry.
Quick check: does GUUCACCUAGGUCAACGGGUG [Fam2.2 aminoacylation ribozyme variant] have self-aminoacylation greater than or equal to 2?
MET
